Each entry below lists one item and its recorded IC50 value.
System: EU-1
Test: WST cytotoxicity assay, cancer cell EU-1
Format: cell-based, human
Details: Homo sapiens, EU-1, EU-1; no other cell line named in the cell; read-out: Cancer cell (EU-1) cytotoxicity IC50
Answer in µM, number only, no unit symbol.

Study these solved cases before continuing.
GET /values?readout=IC50&item= Cc1ccc(NS(=O)(=O)c2ccc3c(c2)[C@H]2OCC[C@H]2C(c2ccc(C(=O)C4CC4)cc2)N3)cc1Cl (stereo partly drawn)
5.81

GET /values?readout=IC50&item= Cc1ccc(NS(=O)(=O)c2ccc3c(c2)C2OCC[C@H]2C(c2ccc(C(=O)C(C)C)cc2)N3)cc1 (stereo in doubt)
3.33

GET /values?readout=IC50&item= CC(=O)c1cccc(C2CC(=O)c3cc(S(=O)(=O)Nc4ccc(F)c(C)c4)ccc3N2)c1 (stereo not drawn)
0.1

***
GET /values?readout=IC50&item= `COC(=O)c1ccc([C@@H]2Nc3cc(Cl)c(S(=O)(=O)Nc4ccc(C)c(C)c4)cc3[C@H]3C=CC[C@H]32)cc1`
19.3

GET /values?readout=IC50&item= COC(=O)c1ccc(C2Nc3ccc(S(=O)(=O)Nc4ccc(C)c(C)c4)cc3[C@H]3OCCC[C@@H]23)cc1 (stereo partly drawn)
4.56

----------
System: EU-1
Assay: WST cytotoxicity assay, cancer cell EU-1
Assay type: cell-based, human
Details: Homo sapiens, EU-1, EU-1; no other cell line named in the cell; read-out: Cancer cell (EU-1) cytotoxicity IC50
outcome_measure: pIC50
Scale for pIC50: -log10 of concentration given in mol/L; no unit attached.

Study these solved cases before continuing.
GET /values?readout=pIC50&item= Cc1ccc(NS(=O)(=O)c2ccc3c(c2)C2NCC[C@H]2[C@H](c2ccc(S(C)(=O)=O)cc2)N3)cc1C (some centres unmarked)
4.35

GET /values?readout=pIC50&item= `Cc1ccc(NS(=O)(=O)c2ccc3c(c2)[C@H]2NCC[C@H]2[C@@H](c2ccc(C(=O)C(C)C)cc2)N3)cc1C`
5.49

GET /values?readout=pIC50&item= `Cc1ccc(NS(=O)(=O)c2ccc3c(c2)[C@H]2OCC[C@H]2[C@H](C2CCNCC2)N3)cc1C`
5.79

GET /values?readout=pIC50&item= CCCC(=O)c1ccc(C2Nc3ccc(S(=O)(=O)Nc4ccc(C)c(C)c4)cc3[C@H]3OCC[C@@H]23)cc1 (some centres unmarked)
5.53

GET /values?readout=pIC50&item= CCOC1C[C@@H](c2ccc(C(C)=O)cc2)Nc2ccc(S(=O)(=O)Nc3ccc(C)c(C)c3)cc21 (some centres unmarked)
5.19

GET /values?readout=pIC50&item= `Cc1ccc(NS(=O)(=O)c2ccc3c(c2Cl)[C@H]2C=CC[C@H]2[C@H](c2ccc(S(C)(=O)=O)cc2)N3)cc1C`
4.63

GET /values?readout=pIC50&item= COc1cc(NS(=O)(=O)c2ccc3c(c2)C(=O)CC(c2ccc(C(C)=O)cc2)N3)ccc1C (centres unmarked)
5.05

GET /values?readout=pIC50&item= COc1cc(NS(=O)(=O)c2ccc3c(c2)C(=O)CC(c2cccc(C(=O)N(C)C)c2)N3)ccc1C (centres unmarked)
6.09

***
GET /values?readout=pIC50&item= CC(C)c1ccc(C2Nc3ccc(S(=O)(=O)Nc4cccc(C(C)O)c4)cc3[C@H]3OCC[C@@H]23)cc1 (some centres unmarked)
6.92

GET /values?readout=pIC50&item= Cc1ccc(NS(=O)(=O)c2ccc3c(c2)C(=O)CC(c2cccc(C(=O)C(C)C)c2)N3)cc1C#N (centres unmarked)
6.27

GET /values?readout=pIC50&item= CC(=O)c1cccc(NS(=O)(=O)c2ccc3c(c2)[C@H]2OCC[C@H]2C(c2ccc(C(C)C)cc2)N3)c1 (some centres unmarked)
6.25

GET /values?readout=pIC50&item= COc1cc(NS(=O)(=O)c2ccc3c(c2)C(=O)CC(c2cccc(C(=O)C(C)C)c2)N3)ccc1C (centres unmarked)
6.27

GET /values?readout=pIC50&item= Cc1ccc(NS(=O)(=O)c2ccc3c(c2)[C@H]2OCC[C@H]2C(c2ccc(C(=O)C(C)C)cc2)N3)cc1Cl (some centres unmarked)
5.81
